Cited source: ChEMBL document CHEMBL1155317

- assay: Inhibition of HIV1 NL4-3 gp160 assessed as inhibition of interaction between gp120 and host CD4 receptor by cell-cell fusion assay
- Set-up: species or system Human immunodeficiency virus 1
So I've got a bunch of molecules here, and I need their pIC50 values.
Answers are plain numbers, as −log10 of the molar value.

The examples below pair each entry with its known result.
>  <molecule>
CC(Oc1cccc2ccccc12)C(=O)N1CCN(C(=O)c2ccccc2)C[C@H]1C (stereo partly drawn)

>  <endpointName>
pIC50

>  <observedMeasurement>
6.91

$$$$
>  <molecule>
CNC(=O)c1ccc2c(O[C@@H](C)C(=O)N3CCN(C(=O)c4ccccc4)C[C@H]3C)cccc2n1

>  <endpointName>
pIC50

>  <observedMeasurement>
7.11

$$$$

Ask: Bench note: what pIC50 did CC(Oc1cccc2ncccc12)C(=O)N1CCN(C(=O)c2ccccc2)C[C@H]1C (stereo partly drawn) show?
Reply: 7.00

---

- assay: Inhibition of HIV1 NL4-3 gp160 assessed as inhibition of interaction between gp120 and host CD4 receptor by cell-cell fusion assay
- Set-up: species or system Human immunodeficiency virus 1
endpointName: pIC50
Numbers only, as −log10 of the molar value.

Below: 3 compounds and their reported pIC50.
>  <compound>
CNC(=O)c1ccc(O[C@@H](C)C(=O)N2CCN(C(=O)c3ccccc3)C[C@H]2C)c2cccnc12

>  <endpointName>
pIC50

>  <observedMeasurement>
5.90

$$$$
>  <compound>
Cc1nc2c(OC(C)C(=O)N3CCN(C(=O)c4ccccc4)C[C@H]3C)cccc2o1 (stereo partly specified)

>  <endpointName>
pIC50

>  <observedMeasurement>
5.69

$$$$
>  <compound>
CNC(=O)c1cc(OC)c(O[C@@H](C)C(=O)N2CCN(c3nccc4[nH]ccc34)C[C@H]2C)cn1

>  <endpointName>
pIC50

>  <observedMeasurement>
7.54

$$$$

// batch mode: one pIC50 value per listed entry
1. CC(Oc1cncc2ccccc12)C(=O)N1CCN(C(=O)c2ccccc2)C[C@H]1C (stereo partly specified)
2. Cc1n[nH]c2cccc(OC(C)C(=O)N3CCN(C(=O)c4ccccc4)C[C@H]3C)c12 (stereo partly specified)
3. CNC(=O)c1cc(OC)c(O[C@@H](C)C(=O)N2CCN(C(=O)c3ccccc3)C[C@H]2C)cn1

Reply:
[5.03, 7.80, 7.85]
